# TESTED_ON: ALK (baculovirus expressed human ALK kinase domain F1098-K1410) (Homo sapiens)
# Construct: human ALK kinase domain F1098-K1410; made in house
# Sequence (Q9UM73 1098-1410): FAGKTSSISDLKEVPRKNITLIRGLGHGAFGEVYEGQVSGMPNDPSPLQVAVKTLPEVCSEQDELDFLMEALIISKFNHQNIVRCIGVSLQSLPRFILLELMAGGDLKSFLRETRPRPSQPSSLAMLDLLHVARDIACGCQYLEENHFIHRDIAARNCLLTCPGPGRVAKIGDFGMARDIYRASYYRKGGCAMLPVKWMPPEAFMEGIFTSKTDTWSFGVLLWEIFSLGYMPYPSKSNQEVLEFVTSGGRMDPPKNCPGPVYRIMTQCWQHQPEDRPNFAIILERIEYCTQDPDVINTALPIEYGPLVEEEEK
# METHOD: biochemical
# ASSAY_CONTEXT: 1 μM ATP, 4 μM poly-AEKY, 12 nM ALK, 2 hours at ambient temperature; read-out: ALK IC50
READOUT: IC50

[[record]]
compound = "C[C@H](CNC(=O)c1coc(CNC(=O)COc2ccc(OC(F)(F)F)cc2)n1)c1ccccc1 [Entry 240]"
readout = "IC50"
observed_value = "500 to 2000 nM"

[[record]]
compound = "Cc1ccc(CCNC(=O)c2coc(CNC(=O)COc3ccc(OC(F)(F)F)cc3)n2)cc1 [Entry 225]"
readout = "IC50"
observed_value = "500 to 2000 nM"

[[record]]
compound = "O=C(COc1ccc(OC(F)(F)F)cc1)NCc1nc(C(=O)N2CCN(c3c(Cl)cncc3Cl)CC2)cs1 [Entry 66]"
readout = "IC50"
observed_value = "50 to 500 nM"

[[record]]
compound = "Cc1ccccc1CCNC(=O)c1csc(CNC(=O)COc2ccc(OC(F)(F)F)cc2)n1 [Entry 15]"
readout = "IC50"
observed_value = "< 50 nM"

[[record]]
compound = "CC(C)C(C)NC(=O)c1csc(CNC(=O)COc2ccc(OC(F)(F)F)cc2)n1 (centres unmarked) [Entry 197]"
readout = "IC50"
observed_value = "50 to 500 nM"


* * *

Here the recorded pIC50 is given for each entry.
# TESTED_ON: ALK (baculovirus expressed human ALK kinase domain F1098-K1410) (Homo sapiens)
# Construct: human ALK kinase domain F1098-K1410; made in house
# METHOD: biochemical
# ASSAY_CONTEXT: 1 μM ATP, 4 μM poly-AEKY, 12 nM ALK, 2 hours at ambient temperature; read-out: ALK IC50
pIC50: −log10 of the molar value.
READOUT: pIC50

[[record]]
compound = "O=C(COc1ccc(OC(F)(F)F)cc1)NCc1nc(C(=O)NCc2ccncc2)cs1"
tested_on = "ALK (baculovirus expressed human ALK kinase domain F1098-K1410) (Homo sapiens)"
observed_value = "5.70 to 6.30"

[[record]]
compound = "O=C(COc1ccc(I)cc1)NCc1nc(C(=O)NCCc2ccccc2F)cs1"
tested_on = "ALK (baculovirus expressed human ALK kinase domain F1098-K1410) (Homo sapiens)"
observed_value = "6.30 to 7.30"

[[record]]
compound = "CCOc1cc(CCNC(=O)c2csc(CNC(=O)COc3ccc(OC(F)(F)F)cc3)n2)ccc1OC"
tested_on = "ALK (baculovirus expressed human ALK kinase domain F1098-K1410) (Homo sapiens)"
observed_value = "> 7.30"

[[record]]
compound = "COc1cccc(CNC(=O)c2csc(CNC(=O)Nc3ccc(C(C)C)cc3)n2)c1OC"
tested_on = "ALK (baculovirus expressed human ALK kinase domain F1098-K1410) (Homo sapiens)"
observed_value = "6.30 to 7.30"

[[record]]
compound = "O=C(COc1ccc(OC(F)(F)F)cc1)NCc1nc(C(=O)NCCc2ccc(Br)cc2)cs1"
tested_on = "ALK (baculovirus expressed human ALK kinase domain F1098-K1410) (Homo sapiens)"
observed_value = "6.30 to 7.30"

[[record]]
compound = "CCCCCCNC(=O)c1csc(CNC(=O)COc2ccc(OC(F)(F)F)cc2)n1"
tested_on = "ALK (baculovirus expressed human ALK kinase domain F1098-K1410) (Homo sapiens)"
observed_value = "6.30 to 7.30"

[[record]]
compound = "O=C(COc1ccc(OC(F)(F)F)cc1)NCc1nc(C(=O)N2Cc3ccccc3C2)cs1"
tested_on = "ALK (baculovirus expressed human ALK kinase domain F1098-K1410) (Homo sapiens)"
observed_value = "> 7.30"

[[record]]
compound = "Cc1ccc(C)c(CCNC(=O)c2csc(CNC(=O)COc3ccc(OC(F)(F)F)cc3)n2)c1"
tested_on = "ALK (baculovirus expressed human ALK kinase domain F1098-K1410) (Homo sapiens)"
observed_value = "6.30 to 7.30"

[[record]]
compound = "O=C(COc1ccc(Br)cc1)NCc1nc(C(=O)NCCc2cccc(Cl)c2)cs1"
tested_on = "ALK (baculovirus expressed human ALK kinase domain F1098-K1410) (Homo sapiens)"
observed_value = "6.30 to 7.30"

[[record]]
compound = "CC(C)(C)OC(=O)NC1CCN(C(=O)c2csc(CNC(=O)COc3ccc(OC(F)(F)F)cc3)n2)C1 (stereo not drawn)"
tested_on = "ALK (baculovirus expressed human ALK kinase domain F1098-K1410) (Homo sapiens)"
observed_value = "5.70 to 6.30"

[[record]]
compound = "NS(=O)(=O)c1ccc(CCNC(=O)c2csc(CNC(=O)COc3ccc(OC(F)(F)F)cc3)n2)cc1"
tested_on = "ALK (baculovirus expressed human ALK kinase domain F1098-K1410) (Homo sapiens)"
observed_value = "> 7.30"

[[record]]
compound = "CC(NC(=O)c1csc(CNC(=O)COc2ccc(OC(F)(F)F)cc2)n1)c1ccc(F)cc1 (stereo not drawn)"
tested_on = "ALK (baculovirus expressed human ALK kinase domain F1098-K1410) (Homo sapiens)"
observed_value = "6.30 to 7.30"

[[record]]
compound = "COc1ccccc1CNC(=O)c1csc(CNC(=O)C/C=C/c2ccccc2)n1"
tested_on = "ALK (baculovirus expressed human ALK kinase domain F1098-K1410) (Homo sapiens)"
observed_value = "5.70 to 6.30"

[[record]]
compound = "CC(C)CCCC(C)NC(=O)c1csc(CNC(=O)COc2ccc(OC(F)(F)F)cc2)n1 (stereo not drawn)"
tested_on = "ALK (baculovirus expressed human ALK kinase domain F1098-K1410) (Homo sapiens)"
observed_value = "6.30 to 7.30"

[[record]]
compound = "CCC1COC(C)(CCC(C)C)N1C(=O)c1csc(CNC(=O)COc2ccc(OC(F)(F)F)cc2)n1 (stereo not drawn)"
tested_on = "ALK (baculovirus expressed human ALK kinase domain F1098-K1410) (Homo sapiens)"
observed_value = "< 5.70"

[[record]]
compound = "COc1ccccc1CNC(=O)c1csc(CNC(=O)COc2ccc(Br)cc2)n1"
tested_on = "ALK (baculovirus expressed human ALK kinase domain F1098-K1410) (Homo sapiens)"
observed_value = "5.70 to 6.30"

[[record]]
compound = "O=C(COc1ccc(OC(F)(F)F)cc1)NCc1nc(C(=O)NCC2CC2)cs1"
tested_on = "ALK (baculovirus expressed human ALK kinase domain F1098-K1410) (Homo sapiens)"
observed_value = "6.30 to 7.30"

[[record]]
compound = "O=C(COc1ccc(OC(F)(F)F)cc1)NCc1nc(C(=O)NCc2cc(F)cc(F)c2)cs1"
tested_on = "ALK (baculovirus expressed human ALK kinase domain F1098-K1410) (Homo sapiens)"
observed_value = "6.30 to 7.30"

[[record]]
compound = "O=C(COc1ccc(OC(F)(F)F)cc1)NCc1nc(C(=O)NC2CCc3ccccc32)cs1 (stereo not drawn)"
tested_on = "ALK (baculovirus expressed human ALK kinase domain F1098-K1410) (Homo sapiens)"
observed_value = "6.30 to 7.30"

[[record]]
compound = "CC(NC(=O)c1coc(CNC(=O)COc2ccc(OC(F)(F)F)cc2)n1)c1cccc2ccccc12 (stereo not drawn)"
tested_on = "ALK (baculovirus expressed human ALK kinase domain F1098-K1410) (Homo sapiens)"
observed_value = "6.30 to 7.30"

[[record]]
compound = "COc1ccccc1CNC(=O)c1csc(CNC(=O)COc2ccc(C(C)C)cc2)n1"
tested_on = "ALK (baculovirus expressed human ALK kinase domain F1098-K1410) (Homo sapiens)"
observed_value = "6.30 to 7.30"

[[record]]
compound = "CN(CCCNC(=O)c1csc(CNC(=O)COc2ccc(OC(F)(F)F)cc2)n1)c1ccccc1"
tested_on = "ALK (baculovirus expressed human ALK kinase domain F1098-K1410) (Homo sapiens)"
observed_value = "6.30 to 7.30"

[[record]]
compound = "CC1CN(C(=O)c2csc(CNC(=O)COc3ccc(OC(F)(F)F)cc3)n2)CCN1c1ccccc1 (stereo not drawn)"
tested_on = "ALK (baculovirus expressed human ALK kinase domain F1098-K1410) (Homo sapiens)"
observed_value = "5.70 to 6.30"

[[record]]
compound = "NCc1nc(C(=O)NCCc2cccc(Cl)c2)co1"
tested_on = "ALK (baculovirus expressed human ALK kinase domain F1098-K1410) (Homo sapiens)"
observed_value = "< 5.70"

[[record]]
compound = "O=C(COc1ccc(OC(F)(F)F)cc1)NCc1nc(C(=O)NCCc2ccc(Cl)cc2Cl)cs1"
tested_on = "ALK (baculovirus expressed human ALK kinase domain F1098-K1410) (Homo sapiens)"
observed_value = "6.30 to 7.30"

[[record]]
compound = "O=C(COc1ccc(OC(F)(F)F)cc1)NCc1nc(C(=O)NCCc2ccccc2)co1"
tested_on = "ALK (baculovirus expressed human ALK kinase domain F1098-K1410) (Homo sapiens)"
observed_value = "5.70 to 6.30"

[[record]]
compound = "COc1cccc(CNC(=O)c2csc(CNC(=O)COc3ccc(OC(F)(F)F)cc3)n2)c1"
tested_on = "ALK (baculovirus expressed human ALK kinase domain F1098-K1410) (Homo sapiens)"
observed_value = "6.30 to 7.30"


Hello, the source for this data is patent US7973061B2, in case you need it.
